Test system: H929 cells
Assay: Cell viability assay (H929 10 FBS)
Type: cell-based
Conditions: Homo sapiens, NCI-H929, 24 hours, read-out: H929_10FBS IC50
Experimental: Cell Viability Assay (H929 10 FBS) Dispense 10 μL aliquot of prepared H929 cells (1:1 ratio of cells:Trypan Blue (#1450013, Bio-Rad)) onto cell counting slide (#145-0011, Bio-Rad) and obtain cell density and cell viability using cell counter (TC20, Bio-Rad). Remove appropriate volume of resuspended cells from culture flask to accommodate 4000 cells/well @ 10 μL/well. […] Read plates with microplate reader (PheraStar, BMG Labtech) using 384 well luminescence mode.
Entries and their IC50 values follow.

COMPOUND	VALUE MEASURED
CN(C(=O)O[C@H]1/C=C/COC(C)(C)C(=O)NS(=O)(=O)c2ccc3c(c2)N(C[C@@H]2CC[C@H]21)C[C@]1(CO3)OCCc2cc(Cl)ccc21)[C@@H]1CCOC1	< 1 µM

The recorded IC50 for entry O=C1CC/C=C/COC[C@@H]2CC[C@H]2CN2C[C@@]3(CCCc4cc(Cl)ccc43)COc3ccc(cc32)S(=O)(=O)N1 equals > 1 µM

The recorded IC50 for entry CO[C@H]1/C=C/CNC(C)(C)C(=O)NS(=O)(=O)c2ccc3c(c2)N(C[C@@H]2CC[C@H]21)C[C@@]1(CCCc2cc(Cl)ccc21)CO3 equals > 1 µM

The recorded IC50 for entry CNC(=O)O[C@H]1/C=C/CN(C)C(C)(C)C(=O)NS(=O)(=O)c2ccc3c(c2)N(C[C@@H]2CC[C@H]21)C[C@@]1(CCCc2cc(Cl)ccc21)CO3 equals < 0.5 µM

The recorded IC50 for entry CO[C@@H]1/C=C/C[C@H](C)[C@@H](CC(=O)N2CC(F)(F)C2)C(=O)NS(=O)(=O)c2ccc3c(c2)N(C[C@@H]2CC[C@H]21)C[C@@]1(CCCc2cc(Cl)ccc21)CO3 equals > 1 µM

src = patent US11130769B2
